B1: Azoarcus group I ribozyme (parent)
chain: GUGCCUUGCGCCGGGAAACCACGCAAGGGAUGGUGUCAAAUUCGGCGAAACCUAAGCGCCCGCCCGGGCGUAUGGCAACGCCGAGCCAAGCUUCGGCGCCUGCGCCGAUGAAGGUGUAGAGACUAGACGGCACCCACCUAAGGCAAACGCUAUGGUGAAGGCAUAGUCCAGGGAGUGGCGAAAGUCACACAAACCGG

variants of: B1; test: reverse-splicing fitness (ratio to wild type); higher = more active; in vitro selection; Mg2+ level not given
# Lookup of reported reverse-splicing fitness keyed by entry
propertyLabel: reverse-splicing fitness

mutationlabel="A111C A120G A145G U176C" propertylabel="reverse-splicing fitness" resultvalue=0.0456
mutationlabel="C82A A120C A145G C169A" propertylabel="reverse-splicing fitness" resultvalue=0.00985
mutationlabel="C82G A111U A120C A145C U176C" propertylabel="reverse-splicing fitness" resultvalue=0.0234
mutationlabel="A111U A120C C150U C169U U176A" propertylabel="reverse-splicing fitness" resultvalue=0.0292
mutationlabel="C82G A111U C150U" propertylabel="reverse-splicing fitness" resultvalue=0.192
mutationlabel="C82U A111C A120U A145G C169G U176A" propertylabel="reverse-splicing fitness" resultvalue=0.00323
mutationlabel="C82U A120U C150G C169U U176G" propertylabel="reverse-splicing fitness" resultvalue=0.00244
mutationlabel="A111G A120C C169U U176C" propertylabel="reverse-splicing fitness" resultvalue=0.0857
mutationlabel="C82U A111G C150G C169G U176G" propertylabel="reverse-splicing fitness" resultvalue=0.00525
mutationlabel="A111U C169A U176G" propertylabel="reverse-splicing fitness" resultvalue=0.00592
mutationlabel="C82U A111G A120C C169A U176A" propertylabel="reverse-splicing fitness" resultvalue=0.014
mutationlabel="C82U A120C C150A C169G" propertylabel="reverse-splicing fitness" resultvalue=0.00799
mutationlabel="C82U A111U A120C C150U C169A" propertylabel="reverse-splicing fitness" resultvalue=0.00987
mutationlabel="C82G A120G A145G C150U C169G" propertylabel="reverse-splicing fitness" resultvalue=0.04
mutationlabel="C82G A120U A145U C150G C169G" propertylabel="reverse-splicing fitness" resultvalue=0.00287
mutationlabel="C82G A111G A120U A145G C150U C169U" propertylabel="reverse-splicing fitness" resultvalue=0.00611
